Recorded pIC50 by entry
Molecular target: Avi-KRAS G12V (1-169) GppNHp/RAF1 RBD-3xFLAG (52-151) (Homo sapiens, UniProt P01116, G12V)
Construct: Avi-KRAS G12V (1-169)
Sequence (P01116 1-169 isoform P01116-2 G12V): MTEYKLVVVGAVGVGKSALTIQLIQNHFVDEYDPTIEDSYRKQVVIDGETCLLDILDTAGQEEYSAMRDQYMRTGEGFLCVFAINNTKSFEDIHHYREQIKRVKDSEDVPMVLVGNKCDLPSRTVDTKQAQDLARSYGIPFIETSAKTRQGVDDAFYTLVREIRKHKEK
Assay: Raf1-KRAS G12V-GppNHP disruption HTRF assay (Biological Example 1)
Format: binding
Settings: KRAS G12V, GppNHp-loaded; class symbols
pIC50: −log10 of the molar value.

molecule	pIC50
C/C=C\C(=O)N1CC[C@@H](N(C)c2nc(OC[C@@]34CCCN3C[C@H](F)C4)nc3c(F)c(-c4ccc(F)c5sc(N)c(C#N)c45)c(C(F)(F)F)cc23)[C@H]1C [Compound 672]	6.00 to 7.00
N#Cc1c(N)sc2c(F)ccc(-c3c(C(F)(F)F)cc4c(N5CC6CC(C5)O6)nc(OC[C@]56C[C@@H](F)CN5CC5(CC5)C6)nc4c3F)c12 [Compound 594]	5.00 to 6.00

q: Please report pIC50 for the following molecule: CCN(c1nc(OC[C@@]23CCCN2C[C@H](F)C3)nc2c(F)c(-c3ccc(F)c4sc(N)c(C#N)c34)c(C(F)(F)F)cc12)[C@H]1C[C@H](C)N(C(=O)c2ccon2)C1 (atropisomer, axis not shown) [Compound 766]
a: > 7.00

* * *

Target: Avi-KRAS G12R (1-169) GppNHp/RAF1 RBD-3xFLAG (52-151) (Homo sapiens, UniProt P01116, G12R)
Construct: Avi-KRAS G12R (1-169)
Sequence (P01116 1-169 isoform P01116-2 G12R): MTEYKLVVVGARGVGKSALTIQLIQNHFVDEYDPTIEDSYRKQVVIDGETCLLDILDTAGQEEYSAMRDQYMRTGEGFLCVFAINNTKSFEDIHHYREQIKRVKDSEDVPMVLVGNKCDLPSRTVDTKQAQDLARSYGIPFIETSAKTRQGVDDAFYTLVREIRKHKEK
Assay: Raf1-KRAS G12R-GppNHP disruption HTRF assay (Biological Example 1)
Type: binding
Conditions: KRAS G12R-GppNHp/RAF1 RBD HTRF
pIC50: −log10 of the molar value.
attribute_measured: pIC50

molecule	attribute_measured	value_reported
N#Cc1c(N)sc2c(F)ccc(-c3c(C(F)(F)F)cc4c(N5CC6COC(C6)C5)nc(OC[C@@]56CCCN5C[C@H](F)C6)nc4c3F)c12 (some centres unmarked)	pIC50	6.00 to 7.00
CC(C)C(=O)N1C[C@@H](N(C)c2nc(OC[C@@]34CCCN3C[C@H](F)C4)nc3c(F)c(-c4ccc(F)c5sc(N)c(C#N)c45)c(C(F)(F)F)cc23)C[C@H]1C	pIC50	5.00 to 6.00
CC(=O)N1C[C@H]2CCCN(c3nc(OC[C@@]45CCCN4C[C@H](F)C5)nc4c(F)c(-c5ccc(F)c6sc(N)c(C#N)c56)c(C(F)(F)F)cc34)[C@H]2C1	pIC50	5.00 to 6.00
CCN(c1nc(OC[C@@]23CCCN2C[C@H](F)C3)nc2c(F)c(-c3ccc(F)c4sc(N)c(C#N)c34)c(C(F)(F)F)cc12)[C@H]1CC(=O)N(C(C)C)C1	pIC50	5.00 to 6.00

Now consider a different molecule.
q: For N#Cc1c(N)sc2c(F)ccc(-c3c(C(F)(F)F)cc4c(N5CC6CCC(C5)N6C(=O)C5CC5)nc(OC[C@@]56CCCN5C[C@H](F)C6)nc4c3F)c12 , write its pIC50.
a: 5.00 to 6.00

* * *

Target: Avi-KRAS WT (2-169) GTP/RAF1 RBD-3xFLAG (51-131) (Homo sapiens)
Construct: Avi-KRAS WT (2-169)
Sequence (P01116 2-169 isoform P01116-2): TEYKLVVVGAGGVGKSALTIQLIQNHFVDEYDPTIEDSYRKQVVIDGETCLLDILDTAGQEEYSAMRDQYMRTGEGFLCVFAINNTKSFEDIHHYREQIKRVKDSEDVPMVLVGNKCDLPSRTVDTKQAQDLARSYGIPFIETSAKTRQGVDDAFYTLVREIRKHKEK
Test: Raf1-KRAS WT-GTP disruption HTRF assay (Biological Example 3)
Format: binding
Conditions: KRAS WT, GTP-loaded
attribute_measured: IC50

The following molecules have reported results that may help.
molecule	IC50
C/C=C/C(=O)N1C[C@@H](N(CC)c2nc(OC[C@@]34CCCN3C[C@H](F)C4)nc3c(F)c(-c4ccc(F)c5sc(N)c(C#N)c45)c(C(F)(F)F)cc23)C[C@@H]1COC (atropisomer, axis not shown)	100 to 1000 nM
CC(=O)N1CC(N(C)c2nc(OCC34CCCN3CC(F)C4)nc3c(F)c(-c4ccc(F)c5sc(N)c(C#N)c45)c(C(F)(F)F)cc23)CC1C (stereo not drawn)	100 to 1000 nM

Read the next record carefully.
q: Answer with the recorded IC50 of CCN(c1nc(OC[C@@]23CCCN2C[C@H](F)C3)nc2c(F)c(-c3ccc(F)c4sc(N)c(C#N)c34)c(C(F)(F)F)cc12)[C@H]1CCN(C(=O)N(C)C)C1 (atropisomer, axis not shown) only.
a: 100 to 1000 nM
